Tested on: Staphylococcus aureus UC 1128
test.name: serial dilution liquid medium MIC, Staphylococcus aureus UC 1128 pen-resistant
Assay type: cell-based
test.parameters: UC1128; Staphylococcus aureus UC 1128 pen-resistant; 24 hours at 37° C.; read-out: minimum inhibiting concentration (MIC)
value.kind: MIC

{"compound": "CC[C@H]1OC(=O)[C@H](C)[C@@H](O[C@H]2C[C@@](C)(OC)[C@@H](O)[C@H](C)O2)[C@H](C)[C@@H](O[C@@H]2O[C@H](C)C[C@H](N(C)C)[C@H]2O)[C@](C)(O)C[C@@H](C)C(=NOCC(=O)C(C)(C)C)[C@H](C)[C@@H](O)[C@]1(C)O [Example 15]", "MIC": "1 µg/mL"}

Just so you know, measured MIC for CCSCCON=C1[C@H](C)C[C@@](C)(O)[C@H](O[C@@H]2O[C@H](C)C[C@H](N(C)C)[C@H]2O)[C@@H](C)[C@H](O[C@H]2C[C@@](C)(OC)[C@@H](O)[C@H](C)O2)[C@@H](C)C(=O)O[C@H](CC)[C@@](C)(O)[C@H](O)[C@H]1C [Example 13] came out at 0.6 µg/mL
